# System: CP191
# Test: qHTS profiling for inhibitors of Plasmodium falciparum proliferation (AID 504749); further: nearly all actives have a fitted effect of over 60% in size
# Experimental Parameters: P. falciparum in erythrocytes, SYBR Green DNA, 72 h; series mostly up to 28.7 µM
Records with an inconclusive call do not appear. The source made the active and inactive calls. The call rests on the fitted dose curve; in most records, active means well fitted inhibition curve with a large enough effect; inconclusive means small, poorly fitted or top-dose-only effect; inactive means flat fitted curve, though single readings scatter.
Respond with a class label; see yes for active, no for inactive

* COc1cccc2c1C(=O)c1c(O)c3c(c(O)c1C2=O)C[C@](O)(C(=O)CO)C[C@@H]3O[C@H]1C[C@H](N)[C@@H](O)[C@H](C)O1 | no
* CC(C)(C)c1ccc(CN2CCN([C@H](c3ccccc3)c3ccc(Cl)cc3)CC2)cc1 | yes
* O=C(O)[C@@H](S)[C@H](S)C(=O)O | yes
* C=C1CC[C@H](O)C/C1=C/C=C1\CCC[C@]2(C)[C@@H]([C@H](C)CCCC(C)C)CC[C@@H]12 | no
* CN(C)[C@H]1C(=O)C(C(=O)NCN2CCCC2)=C(O)[C@]2(O)C(=O)C3=C(O)c4c(O)cccc4[C@](C)(O)[C@H]3C[C@H]12 | no
* O=C(O)[C@@H](O)[C@@H](O)[C@H](O)C(=O)CO | no
* CN1[C@@H]2CC(OC(=O)[C@@H](CO)c3ccccc3)C[C@@H]1[C@H]1O[C@H]12 (stereo partly drawn) | no

Exercise: Give the logged outcome of this assay for the following compound: C(=C/c1ccccc1)/CN1CCN(C(c2ccccc2)c2ccccc2)CC1
Solution: no

----------
# Test system: AS120
# Test: qHTS profiling for inhibitors of Plasmodium falciparum proliferation (AID 504749); further: nearly all actives have a fitted effect of over 60% in size
# Experimental Parameters: P. falciparum in erythrocytes, SYBR Green DNA, 72 h; series mostly up to 28.7 µM
Results filed as inconclusive are left out. The source made the active and inactive calls. Calls come from the whole dose curve; as a rule, active = well fitted inhibition curve with a large enough effect; inconclusive = small, poorly fitted or top-dose-only effect; inactive = flat fitted curve, though single readings scatter.
Select the correct class. Options are active, inactive and nothing else.

// below: answered molecules
* COc1cc2nc(N(C)CCCNC(=O)[C@@H]3CCCO3)nc(N)c2cc1OC | inactive
* CN1[C@@H]2CC(OC(=O)[C@@H](CO)c3ccccc3)C[C@@H]1[C@H]1O[C@H]12 (some centres undefined) | inactive
* C[C@@H]1C[C@H]2[C@H]3C[C@@H](F)C4=CC(=O)C=C[C@]4(C)[C@@]3(Cl)[C@@H](O)C[C@@]2(C)[C@@H]1C(=O)COC(=O)C(C)(C)C | inactive
* O=C(O)[C@@H](O)[C@@H](O)[C@H](O)C(=O)CO | inactive
* CC(=O)N1CCN(c2ccc(OC[C@@H]3CO[C@@](Cn4ccnc4)(c4ccc(Cl)cc4Cl)O3)cc2)CC1 | inactive

Exercise: Test call for this molecule, please: C[N+]1(C)[C@@H]2CC(OC(=O)[C@@H](CO)c3ccccc3)C[C@@H]1[C@H]1O[C@H]12 (some centres undefined)
Solution: inactive

Exercise: // repeat for CC(C)(C)c1ccc(CN2CCN([C@H](c3ccccc3)c3ccc(Cl)cc3)CC2)cc1 and report
Solution: active

Exercise: What do you have for CC(C)(C)NC[C@@H](O)c1ccc(O)c(CO)n1 ?
Solution: inactive

Exercise: Try the molecule N[C@@H](Cc1ccccc1)C(=O)O
Solution: inactive

Exercise: Please answer likewise for CO/N=C(\C(=O)N[C@@H]1C(=O)N2C(C(=O)[O-])=C(C[N+]3(C)CCCC3)CS[C@@H]12)c1csc(N)n1
Solution: inactive

Exercise: Consider next the molecule CN(C)[C@H]1C(=O)C(C(=O)NCN2CCCC2)=C(O)[C@]2(O)C(=O)C3=C(O)c4c(O)cccc4[C@](C)(O)[C@H]3C[C@H]12 in the same way.
Solution: inactive

Exercise: Param item: C(=C/c1ccccc1)/CN1CCN(C(c2ccccc2)c2ccccc2)CC1
Solution: inactive

Exercise: Same question for Cc1cn([C@H]2C[C@H](N=[N+]=[N-])[C@H](CO)O2)c(=O)[nH]c1=O please.
Solution: inactive

Exercise: For OC[C@H](S)CS then?
Solution: inactive

----------
# Assayed System: Cytochrome P450 1A2 (Homo sapiens) (UniProt P05177)
# Sequence (P05177 whole entry, looked up): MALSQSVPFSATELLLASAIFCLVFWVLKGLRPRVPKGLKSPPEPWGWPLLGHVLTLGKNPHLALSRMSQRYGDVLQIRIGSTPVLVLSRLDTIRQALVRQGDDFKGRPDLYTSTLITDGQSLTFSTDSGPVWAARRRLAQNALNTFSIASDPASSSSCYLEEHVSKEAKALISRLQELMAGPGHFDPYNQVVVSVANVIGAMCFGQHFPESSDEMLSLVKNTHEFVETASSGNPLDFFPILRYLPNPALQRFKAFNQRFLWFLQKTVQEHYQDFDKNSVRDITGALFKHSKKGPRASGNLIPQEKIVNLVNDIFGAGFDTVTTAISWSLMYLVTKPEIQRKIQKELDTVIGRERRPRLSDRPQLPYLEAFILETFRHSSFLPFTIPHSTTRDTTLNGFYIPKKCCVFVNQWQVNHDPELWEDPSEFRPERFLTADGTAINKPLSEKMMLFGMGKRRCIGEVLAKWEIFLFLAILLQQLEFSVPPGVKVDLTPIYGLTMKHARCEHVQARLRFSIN
# Test: p450-cyp1a2 (AID 410)
# Experimental Parameters: recombinant CYP1A2, luciferin-ME demethylation, luminescence; series mostly up to 11.4 µM
Inconclusive results are not listed. The source made the active and inactive calls. Calls follow the shape of the full dose curve.
# output must be one of y for active, n for inactive

• O=C(O)[C@H]1CC=CC[C@@H]1C(=O)Nc1cccc(O)c1 = n

Exercise: Dear all, I need the recorded test outcome for Cn1c(=O)c2c(nc(C(=N)SCC(=O)O)n2C)n(C)c1=O , thank you.
Solution: y

Exercise: Also check CCCCC[C@H](CC(=O)NO)C(=O)N[C@@H](C(=O)N1CCC[C@H]1CO)C(C)C
Solution: n

Exercise: Moving on to the next compound: Cc1cc(Cc2cc(C)c(N)cc2N)c(N)cc1N
Solution: y

Exercise: Now consider NCCCc1ccc2oc3ccccc3c2c1 and answer again.
Solution: y

Exercise: Can you handle O=C(c1cc(C(F)(F)F)cc(C(F)(F)F)c1)N1CCC[C@@]2(CCN(Cc3ccccc3)C2)C1 next?
Solution: y

----------
# System: W2
# Test: qHTS profiling for inhibitors of Plasmodium falciparum proliferation (AID 504749); further: nearly all actives have a fitted effect of over 60% in size
# Experimental Parameters: P. falciparum in erythrocytes, SYBR Green DNA, 72 h; series mostly up to 28.7 µM
Records with an inconclusive call do not appear. Activity calls are given as the source filed them. Calls follow the shape of the dose curve; as a rule, active = well fitted inhibition curve with a large enough effect; inconclusive = small, poorly fitted or top-dose-only effect; inactive = flat fitted curve, though single readings scatter.
I would appreciate it if you answered using one of these outcomes: true (1) = active, false (0) = inactive

Worked set:
• CC1(C)[C@@H]2CC[C@]1(C)[C@@H](OC(=O)CSC#N)C2 = false (0)
• O=C(O)[C@@H](S)[C@H](S)C(=O)O = true (1)
• NS(=O)(=O)c1cc2c(cc1Cl)N[C@H](Cc1ccccc1)NS2(=O)=O = false (0)
• CN(C)[C@H]1C(=O)C(C(=O)NCN2CCCC2)=C(O)[C@]2(O)C(=O)C3=C(O)c4c(O)cccc4[C@](C)(O)[C@H]3C[C@H]12 = false (0)
• O=C(O)[C@@H](O)[C@@H](O)[C@H](O)[C@H](O)CO = true (1)
• CC(C)(C)c1ccc(CN2CCN([C@H](c3ccccc3)c3ccc(Cl)cc3)CC2)cc1 = true (1)
• CO/N=C(\C(=O)N[C@@H]1C(=O)N2C(C(=O)[O-])=C(C[N+]3(C)CCCC3)CS[C@@H]12)c1csc(N)n1 = false (0)
• Cc1c(C(=O)O)c(O)cc2c1C(=O)c1c(O)c([C@H]3O[C@H](CO)[C@@H](O)[C@H](O)[C@H]3O)c(O)c(O)c1C2=O = false (0)
• C[C@]12CC[C@H]3c4ccc(O)cc4CC[C@@H]3[C@H]1CC[C@@H]2OP(=O)(O)O = false (0)
• Cc1cn([C@H]2C[C@H](N=[N+]=[N-])[C@H](CO)O2)c(=O)[nH]c1=O = false (0)

Exercise: What call does the record list for Cc1onc(-c2c(F)cccc2Cl)c1C(=O)N[C@@H]1C(=O)N2[C@H]1SC(C)(C)[C@H]2C(=O)O ?
Solution: false (0)

Exercise: Ok, now C[C@@H]1C[C@H]2[C@H]3C[C@@H](F)C4=CC(=O)C=C[C@]4(C)[C@@]3(Cl)[C@@H](O)C[C@@]2(C)[C@@H]1C(=O)COC(=O)C(C)(C)C
Solution: true (1)

----------
# Test: Cell Viability - LYMP2-002 (AID 977);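 further: compound exposure lasted 24 h at 37 °C; plate controls were DMSO only for no effect and 92 µM tetraoctylammonium bromide for full effect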
# Experimental Parameters: LYMP2-002 lymphoblastoid cell viability, qHTS; series mostly up to 92.2 µM
Results filed as inconclusive are left out. The source made the active and inactive calls. Calls follow the shape of the dose curve; as a rule, active = well fitted cell-killing curve with a large enough effect; inconclusive = small, poorly fitted or top-dose-only effect; inactive = flat fitted curve, though single readings scatter.
Lab note: assign the record to one of class 1 (active), class 0 (inactive)

Take a look at these entries with their results.
• CC(/C=C/C=C(C)/C=C/C(=O)O)=C\C=C\C=C(C)\C=C\C=C(C)\C=C\C(=O)O = class 0
• Nc1cc(C(=O)O)c(O)c(S(=O)(=O)O)c1 = class 0
• O=[N+]([O-])c1ccccc1Nc1ccccc1 = class 0

Exercise: What call does the record list for CC(CCC(=O)O)(c1ccc(O)cc1)c1ccc(O)cc1 ?
Solution: class 0

Exercise: Another compound to look at: CC(C)OCC1CO1 (centres undefined)
Solution: class 0

Exercise: Would you kindly repeat that for C=CC1CO1 (centres undefined) ?
Solution: class 0

Exercise: Query CC(=O)CC(=O)Nc1ccccc1 next
Solution: class 0

Exercise: And for CC(C)(C)C(=O)C1C(=O)c2ccccc2C1=O ?
Solution: class 0

Exercise: Now the compound Oc1ccc2c(c1)OCO2
Solution: class 0

Exercise: Check CCCCC(CC)COP(=O)(OCC(CC)CCCC)OCC(CC)CCCC (centres undefined) too.
Solution: class 0

Exercise: Try this compound too: O=C(O)/C=C/c1ccc(/C=C/C(=O)O)cc1
Solution: class 0

Exercise: # iterate: C[C@@H]1CC2(OC(O)[C@]3(C)O[C@H]23)O[C@H]2C[C@@]3(C)[C@@H]4CC[C@H]5C(C)(C)C(O[C@@H]6OC[C@@H](O)[C@H](O)[C@H]6O)CC[C@@]56C[C@@]46CC[C@]3(C)[C@@H]12 (some centres undefined)
Solution: class 0
